Answer each item with its documented pIC50.
pIC50 field: float, defined as -log10 of concentration (mol/L).

Give pIC50 for COc1cc2c(Oc3ccc(NC(=O)C4(C(=O)Nc5ccc(F)cc5)CC4)cc3F)ccnc2cc1OCCCN1CCOCC1 tested on High affinity nerve growth factor receptor (Homo sapiens, UniProt P04629).
Sequence (P04629 whole entry): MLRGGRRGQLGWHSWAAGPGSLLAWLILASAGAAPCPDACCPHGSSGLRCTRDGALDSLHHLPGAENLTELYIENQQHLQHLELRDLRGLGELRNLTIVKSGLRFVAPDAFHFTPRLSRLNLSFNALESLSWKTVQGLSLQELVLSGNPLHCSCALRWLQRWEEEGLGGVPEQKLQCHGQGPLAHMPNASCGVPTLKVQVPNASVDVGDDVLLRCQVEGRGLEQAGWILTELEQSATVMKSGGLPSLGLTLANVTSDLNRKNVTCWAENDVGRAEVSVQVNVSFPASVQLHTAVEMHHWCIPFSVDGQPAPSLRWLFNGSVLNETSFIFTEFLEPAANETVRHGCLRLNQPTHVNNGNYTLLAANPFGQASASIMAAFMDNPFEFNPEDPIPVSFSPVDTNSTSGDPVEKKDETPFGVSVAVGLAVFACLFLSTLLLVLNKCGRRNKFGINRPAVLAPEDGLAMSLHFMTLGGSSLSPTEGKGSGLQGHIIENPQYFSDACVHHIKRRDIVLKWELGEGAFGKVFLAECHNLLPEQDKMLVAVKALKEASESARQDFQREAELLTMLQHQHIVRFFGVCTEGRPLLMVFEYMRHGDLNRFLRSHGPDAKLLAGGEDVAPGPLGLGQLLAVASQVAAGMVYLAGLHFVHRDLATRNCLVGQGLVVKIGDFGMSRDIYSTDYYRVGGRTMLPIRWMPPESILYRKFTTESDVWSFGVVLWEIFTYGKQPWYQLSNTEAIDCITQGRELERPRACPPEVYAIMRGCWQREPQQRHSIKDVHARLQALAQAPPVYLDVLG
8.53

Give pIC50 for COc1cc2nccc(Oc3ccc(NC(=O)C4(C(=O)Nc5ccc(F)cc5)CC4)cc3)c2cc1OC [CABOZANTINIB] tested on High affinity nerve growth factor receptor (Homo sapiens, UniProt P04629).
7.14

---

- Assay text: Inhibition of TRKC G623R mutant (unknown origin) in presence of [gamma-33P]ATP by hotspot kinase assay
- Set-up: species or system Homo sapiens
Reported endpoint: pIC50
pIC50 field: float, defined as -log10 of concentration (mol/L).

Tell me measured pIC50 for O=C(Nc1cnn2ccc(N3CCC[C@H]3c3cc(F)ccc3F)nc12)N1CC[C@@H](O)C1 please.
6.68

---

- Measured target: Aurora kinase A (Homo sapiens)
- Sequence (O14965 whole entry): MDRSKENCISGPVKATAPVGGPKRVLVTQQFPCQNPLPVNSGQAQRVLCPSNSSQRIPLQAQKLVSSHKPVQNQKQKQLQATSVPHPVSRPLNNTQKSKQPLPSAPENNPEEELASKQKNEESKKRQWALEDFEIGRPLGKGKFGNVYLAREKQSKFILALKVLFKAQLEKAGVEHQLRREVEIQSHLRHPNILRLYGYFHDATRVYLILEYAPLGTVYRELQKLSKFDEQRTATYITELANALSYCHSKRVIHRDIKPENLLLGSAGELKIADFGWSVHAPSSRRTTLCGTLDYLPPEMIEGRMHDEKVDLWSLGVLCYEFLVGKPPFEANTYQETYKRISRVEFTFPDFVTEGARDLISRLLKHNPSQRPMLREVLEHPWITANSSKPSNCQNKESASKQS
- Assay text: biochemical
- Description: Inhibition of GST-tagged AURA Ser123 to 401 residues) (unknown origin) expressed in Sf9 insect cells using tetra-LLRASLG peptide as substrate incubated for 90 mins in presence of ATP
Reported endpoint: pIC50
pIC50 field: float, defined as -log10 of concentration (mol/L).

Tell me measured pIC50 for CCOc1cc2c(NCCc3ccc(NC(=O)Nc4cccc(Cl)c4)cc3)ncnc2cc1F please.
6.97

Tell me measured pIC50 for CCOc1cc2ncnc(Nc3ccc(NC(=O)Nc4ccccc4)cc3)c2cc1F please.
6.47

Tell me measured pIC50 for CCOc1cc2ncnc(NCCc3ccc(NC(=O)Nc4cc(C(F)(F)F)ccc4OC)cc3)c2cc1F please.
6.34

Tell me measured pIC50 for CCOc1cc2ncnc(NCCc3ccc(NC(=O)Nc4ccccc4)cc3)c2cc1F please.
7.53

Tell me measured pIC50 for CCOc1cc2ncnc(NCc3ccc(NC(=O)Nc4cccc(Cl)c4)cc3)c2cc1F please.
8.70

Tell me measured pIC50 for CCOc1cc2ncnc(NCc3ccc(NC(=O)Nc4ccccc4)cc3)c2cc1F please.
8.10

Tell me measured pIC50 for CCOc1cc2c(NCCc3ccc(NC(=O)Nc4ccccc4)cc3)ncnc2cc1F please.
7.18

---

- Assay text: Inhibition of TRKA L657M mutant (unknown origin) in presence of [gamma-33P]ATP by hotspot kinase assay
- Design: species or system Homo sapiens
Reported endpoint: pIC50
pIC50 field: float, defined as -log10 of concentration (mol/L).

Tell me measured pIC50 for O=C(Nc1cnn2ccc(N3CCC[C@H]3c3cc(F)ccc3F)nc12)N1CC[C@@H](O)C1 please.
7.68

---

- Measured target: High affinity nerve growth factor receptor (Homo sapiens)
Reported endpoint: IC50 (nM)
# number only, unit nM dropped from output

Tell me measured IC50 for CN(C)CCCOc1ccc2c(NCCc3cnc(NC(=O)Nc4cccc(Cl)c4)s3)ncnc2c1 please.
36.8

---

- Assay text: Inhibition of TRKA […]/G667C double mutant (unknown origin) in presence of [gamma-33P]ATP by hotspot kinase assay
- Design: species or system Homo sapiens
Reported endpoint: IC50

Tell me measured IC50 for O=C(Nc1cnn2ccc(N3CCC[C@H]3c3cc(F)ccc3F)nc12)N1CC[C@@H](O)C1 please.
> 10 µM

---

- Test system: KM12
- Assay text: Antiproliferative activity against human KM12 cells assessed as reduction in cell viability measured after 72 hrs by MTS assay
- Test context: Homo sapiens, KM12, 72 h
Answer each item with its documented pIC50.
pIC50 field: float, defined as -log10 of concentration (mol/L).

Tell me measured pIC50 for CCOc1cc2ncnc(NCc3ccc(NC(=O)Nc4ccccc4)cc3)c2cc1F please.
5.62

Tell me measured pIC50 for CCOc1cc2ncnc(NCc3ccc(NC(=O)Nc4cccc(Cl)c4)cc3)c2cc1F please.
5.90

Tell me measured pIC50 for CCOc1cc2ncnc(Nc3ccc(NC(=O)Nc4ccccc4)cc3)c2cc1F please.
5.69

Tell me measured pIC50 for O=C(Nc1ccccc1)Nc1ccc(CCNc2ncnc3cc(F)c(F)cc23)cc1 please.
5.82
